Assay read-out IC50 on CRBN-DDB1 (Homo sapiens, UniProt Q96SW2); records merged from the literature.

O=C1CCC(N2Cc3ccc(COC(=O)NCc4ccccc4)cc3C2=O)C(=O)N1 (stereo not drawn) | < 1100 nM
CC1(C)CCC(CN2CCC3(CC2)CC(Sc2ccc4c(c2)CN(C2CCC(=O)NC2=O)C4=O)C3)=C(c2ccc(Cl)cc2)C1 (stereo not drawn) | 1000 to 1900 nM

What value of IC50 has been reported for the following molecule? O=C1CCC(N2Cc3cc(OC4CCN(C(c5ccccc5)c5ccccc5)C4)ccc3C2=O)C(=O)N1 (stereo not drawn)
< 500 nM

For Cc1c(Cl)cc(NC(=O)OCc2ccc3c(c2)C(=O)N(C2CCC(=O)NC2=O)C3)cc1CN1CCOCC1 (stereo not drawn) , what is its reported IC50?
< 1100 nM

Recorded IC50 of CC1(C)CCC(C(=O)N2C[C@H]3CC(Oc4ccc5c(c4)CN(C4CCC(=O)NC4=O)C5=O)C[C@H]3C2)=C(c2ccc(Cl)cc2)C1 (stereo partly drawn) , please.
< 500 nM

# IC50 lookup, item O=C1CCC(N2Cc3ccc(COC(=O)Nc4cnc(N5CCCCC5)nc4)cc3C2=O)C(=O)N1 (stereo not drawn)
< 1100 nM

Quick check: IC50 of Cc1nc2cccc(NCCCCNC3C4CC5CC(C4)CC3C5)c2c(=O)n1C1CCC(=O)NC1=O (stereo not drawn) ?
990 nM

Sample CC1(C)CCC(CN2CCN(C(=O)c3ccc4c(c3)CN(C3CCC(=O)NC3=O)C4=O)CC2)=C(c2ccc(F)cc2)C1 (stereo not drawn) — what was its IC50?
1410 nM

Please report the recorded IC50 for O=C1CCC(N2Cc3c(ccc(CN4CCN(CC5=C(c6ccc(F)cc6)CCCC5)CC4)c3F)C2=O)C(=O)N1 (stereo not drawn) .
700 nM
